Provide the recorded viability, T/C for the entries that follow.
# Tested on: 843782-103-R-J1-PDC complex spheroid viability
# Assay name: Anticancer human tumor 843782-103-R-J1-PDC patient-derived lung adenocarcinoma cell line growth inhibition [RAS]
# Condition: second compound 0.3 µM; first compound 1 µM; hits give low values
Answers are plain numbers, in %.

Consider the reported viability, T/C for these molecules:
Just so you know, measured viability, T/C for CC(C)NCC(C(=O)N1CCN(c2ncnc3c2C(C)CC3O)CC1)c1ccc(Cl)cc1 (centres undefined) + CCn1c(-c2cccnc2C(C)OC)c2c3cc(ccc31)N1CCOC(CC(NC(=O)C(C(C)C)N(C)C(=O)C3(F)CCN(C(=O)C#CC(C)(C)N(C)C)CC3)C(=O)N3CCCC(N3)C(=O)OCC(C)(C)C2)C1 came out at 23.2

Just so you know, measured viability, T/C for C=CC(=O)Nc1cc(Nc2nccc(-c3cn(C)c4ccccc34)n2)c(OC)cc1N(C)CCN(C)C + CCn1c(-c2cccnc2C(C)OC)c2c3cc(ccc31)N1CCOC(CC(NC(=O)C(C(C)C)N(C)C(=O)C3(F)CCN(C(=O)C#CC(C)(C)N(C)C)CC3)C(=O)N3CCCC(N3)C(=O)OCC(C)(C)C2)C1 came out at 31.5

Just so you know, measured viability, T/C for CCC(CC)c1cc(NC2CCC(N)C2)n2nccc2n1 (centres undefined) + CCn1c(-c2cccnc2C(C)OC)c2c3cc(ccc31)N1CCOC(CC(NC(=O)C(C(C)C)N(C)C(=O)C3(F)CCN(C(=O)C#CC(C)(C)N(C)C)CC3)C(=O)N3CCCC(N3)C(=O)OCC(C)(C)C2)C1 came out at 48.4

Others:
Just so you know, measured viability, T/C for Cc1nc(N2CCC3(CC2)COC(C)C3N)c(CO)nc1Sc1ccnc(N)c1Cl (centres undefined) + CCn1c(-c2cc(N3CCN(C)CC3)cnc2C(C)OC)c2c3cc(ccc31)-c1csc(n1)CC(NC(=O)C1CC1C)C(=O)N1CCCC(N1)C(=O)OCC(C)(C)C2 came out at 15.4

* * *

# Tested on: 843782-103-R-J1-PDC complex spheroid viability
# Assay name: Anticancer human tumor 843782-103-R-J1-PDC cell line growth inhibition [RAS];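 note: viability read after seven days of compound exposure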
# Condition: second compound 1 µM; first compound 1 µM; hits give low values
# Description: RAS pathway inhibitors in Combinations in Complex Spheroids A high-throughput screen of multi-cell type tumor spheroids was designed to identify active combinations of RAS pathway inhibitors and targeted small molecules. Complex spheroids include a stromal component modeled by human endothelial cells (HUVEC) and fibroblasts modeled by human mesenchymal stem cells (MSCs). […] Compounds. […] If the clinical Cmax for an agent had not been determined, the highest concentration tested was 10 microM. […]
The label True is reserved for viability, T/C strictly under 30%; False covers values equal to or above it.

Examples with answers:
Lookup: is_below(viability, T/C, 30%) for Cc1nc(N2CCC3(CC2)COC(C)C3N)c(CO)nc1Sc1ccnc(N)c1Cl (stereo not given) + C=CC(=O)N1CCN(c2nc(OCC3CCCN3C)nc3c(F)c(-c4nc(N)cc(C)c4C(F)(F)F)c(Cl)cc23)C(C)C1 ?
Found: False

Lookup: is_below(viability, T/C, 30%) for O=C(c1ccc(F)c(F)c1Nc1ccc(I)cc1F)N1CC(O)([C@@H]2CCCCN2)C1 + C=CC(=O)N1CCN(c2nc(OCC3CCCN3C)nc3c(F)c(-c4nc(N)cc(C)c4C(F)(F)F)c(Cl)cc23)C(C)C1 ?
Found: True

Lookup: is_below(viability, T/C, 30%) for CC1(O)CCCC1n1c(=O)c(C(F)F)cc2cnc(NC3CCN(S(C)(=O)=O)CC3)nc21 (stereo not given) + C#Cc1c(F)ccc2cc(O)cc(-c3ncc4c(N5CC6CCC(C5)N6)nc(OCC56CCCN5CC(F)C6)nc4c3F)c12 ?
Found: False

Lookup: is_below(viability, T/C, 30%) for C[C@@H](NC(=O)c1ncnc(N)c1Cl)c1ncc(C(=O)Nc2cc(C(F)(F)F)c(Cl)cn2)s1 + C#Cc1c(F)ccc2cc(O)cc(-c3ncc4c(N5CC6CCC(C5)N6)nc(OCC56CCCN5CC(F)C6)nc4c3F)c12 ?
Found: False

For the next question, use this compound.
Lookup: is_below(viability, T/C, 30%) for CC(Nc1ccc2c(c1)OCCn1cc(N3C(=O)OCC3C(F)F)nc1-2)C(N)=O (stereo not given) + C#Cc1c(F)ccc2cc(O)cc(-c3ncc4c(N5CC6CCC(C5)N6)nc(OCC56CCCN5CC(F)C6)nc4c3F)c12 ?
Found: True
